The measured values listed here are drawn from paper PMC12564302.

# Test system: HBV replication in HepDES19 cells
# Assay name: qPCR HBV replication inhibition assay
# Format: cell-based, HBV genotype D
# Run conditions: Hepatitis B virus, HepDES19, 72 h, pH 7.4, HepDES19 cells, 72 h, (+) polarity DNA strand, pH 7.4; read-out: EC50
log10 of EC50: recorded values
Answers are given as log10 of EC50 in µM.

Solved cases below.
Short answer for "CC(=NOCc1ccc(Cl)c(Cl)c1)c1c(C)cc(=O)n(O)c1O" : log10 of EC50 was 0.25

Short answer for "CC(=NCc1ccccc1Br)c1c(C)cc(=O)n(O)c1O" : log10 of EC50 was 0.93

Short answer for "CC(=NOCc1ccccc1Cl)C1C(=O)NC(=O)NC1=O" : log10 of EC50 was 2.00

Short answer for "CC(=NCCOc1ccc(Cl)cc1)c1c(C)cc(=O)n(O)c1O" : log10 of EC50 was 1.24

Short answer for "CC(=Nc1ccccc1F)c1c(C)cc(=O)n(O)c1O" : log10 of EC50 was 0.34

Short answer for "CC(=Nc1ccc(F)c(Cl)c1)c1c(C)cc(=O)n(O)c1O" : log10 of EC50 was 0.51

Short answer for "CC(=Nc1ccc(Cl)c(Cl)c1)c1c(C)cc(=O)n(O)c1O" : log10 of EC50 was 0.34

Short answer for "CC(=NCc1ccc(F)c(F)c1)c1c(C)cc(=O)n(O)c1O" : log10 of EC50 was 1.03

Continuing:
Short answer for "CC(=NCc1cc(F)cc(F)c1)c1c(C)cc(=O)n(O)c1O" : log10 of EC50 was 1.87
